- assay.target: bovine mitochondria (ANT) (Bos taurus, UniProt P02722)
- Construct: from tissue; host or cells: bovine heart mitochondria
- Sequence (P02722 2-298 limits assumed): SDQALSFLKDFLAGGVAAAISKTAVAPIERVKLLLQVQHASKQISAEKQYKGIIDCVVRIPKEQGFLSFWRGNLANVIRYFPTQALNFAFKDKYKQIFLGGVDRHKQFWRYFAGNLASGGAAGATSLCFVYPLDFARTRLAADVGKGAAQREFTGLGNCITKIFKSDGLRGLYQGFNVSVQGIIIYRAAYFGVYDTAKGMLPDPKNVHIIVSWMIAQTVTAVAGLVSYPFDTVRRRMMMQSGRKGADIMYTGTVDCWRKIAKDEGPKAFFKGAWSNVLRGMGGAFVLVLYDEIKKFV
- assay: 125I-compound 24 competition binding (Tube Assay), beef heart mitochondria
- test.settings: 0.5 nM 125I-compound 24, FIG. 18, read-out: IC50, competitive inhibition of 125I-compound 24 binding
pIC50: −log10 of the molar value.
experimental.endpoint: pIC50

Fill in reported pIC50 for this entry: CC(C)CC(=O)OC1C(OC2CC(C(=O)O)C3CCC45CC(CCC4C3(C)C2)C(C)C5O)OC(CO)C(OS(=O)(=O)O)C1OS(=O)(=O)O (stereo not shown) [compound 5, Dihydroatractyloside] ~5.48

Values compiled from patent US6906175B2.
